testedSystem: PCSK9 (Homo sapiens, UniProt Q8NBP7)
Construct: purchased
Sequence (Q8NBP7 153-692): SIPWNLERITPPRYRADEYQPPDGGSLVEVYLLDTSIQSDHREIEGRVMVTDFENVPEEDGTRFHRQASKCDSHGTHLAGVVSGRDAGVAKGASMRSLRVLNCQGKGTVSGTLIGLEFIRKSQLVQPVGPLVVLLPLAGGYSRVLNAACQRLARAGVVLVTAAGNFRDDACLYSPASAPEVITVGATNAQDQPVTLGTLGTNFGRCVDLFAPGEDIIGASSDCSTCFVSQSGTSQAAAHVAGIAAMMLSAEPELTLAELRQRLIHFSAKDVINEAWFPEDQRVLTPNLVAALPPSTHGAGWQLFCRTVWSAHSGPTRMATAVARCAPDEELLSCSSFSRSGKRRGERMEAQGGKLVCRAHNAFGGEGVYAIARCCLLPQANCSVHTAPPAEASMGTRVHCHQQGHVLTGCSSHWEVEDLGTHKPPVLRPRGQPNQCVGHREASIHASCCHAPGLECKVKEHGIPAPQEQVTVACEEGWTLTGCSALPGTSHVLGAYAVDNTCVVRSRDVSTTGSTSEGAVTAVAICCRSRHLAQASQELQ
procedureSummary: PCSK9 Alexa FRET Plus TR-FRET assay
Assay type: binding
pKi: −log10 of the molar value.
Everything with pKi lower than 10 is f; everything else, including exactly 10, is t.

Here's what some known entries look like.
compound	cat
COc1ccc(C[C@@H]2NC(=O)[C@H]([C@@H](C)O)NC(=O)[C@@H]3[C@@H]4CCN3C(=O)[C@H](Cc3c[nH]c5ccc(F)cc35)NC(=O)[C@H](Cc3cccc(c3)CNC(=O)CO4)NC(=O)[C@@H](C)NC(=O)[C@H](CNC(=O)CCOCCOCC[N+](C)(C)C)NC(=O)CCC(=O)NCc3ccc(cc3)CCNC(=O)[C@]3(C)CCCN3C2=O)cc1	f
COc1ccc(C[C@@H]2NC(=O)[C@H]([C@@H](C)O)NC(=O)[C@@H]3[C@@H]4CCN3C(=O)[C@H](Cc3c[nH]c5ccc(F)cc35)NC(=O)[C@H](Cc3cccc(c3)CNC(=O)CO4)NC(=O)C(CN)NC(=O)[C@H](C)NC(=O)CCC(=O)NCc3ccc(cc3)CCNC(=O)[C@]3(C)CCCN3C2=O)cc1 (some centres unmarked)	t
COc1ccc(C[C@@H]2NC(=O)[C@H]([C@@H](C)O)NC(=O)[C@@H]3[C@@H]4CCN3C(=O)[C@H](Cc3c[nH]c5ccc(F)cc35)NC(=O)[C@H](Cc3cccc(c3)CNC(=O)CO4)NC(=O)[C@@H](C)NC(=O)[C@H](CN)NC(=O)CCC(=O)NCc3ccc(cc3)CCNC(=O)[C@]3(C)CCCN3C2=O)cc1	f

Let's switch to this compound now.
Given the entry COc1ccc(C[C@@H]2NC(=O)[C@H]([C@@H](C)O)NC(=O)[C@@H]3[C@@H]4CCN3C(=O)[C@H](Cc3c[nH]c5ccc(F)cc35)NC(=O)[C@H](Cc3cccc(c3)Cn3cc(nn3)CO4)NC(=O)[C@@H](C)NC(=O)[C@H](CNC(=O)CCOCCOCC[N+](C)(C)C)NC(=O)CCC(=O)NCc3ccc(cc3)CCNC(=O)[C@]3(C)CCCN3C2=O)cc1 , answer whether its pKi meets or surpasses 10.
f

----------
testedSystem: PCSK9 (Homo sapiens)
Construct: purchased
procedureSummary: PCSK9 Alexa FRET Standard TR-FRET assay
Format: binding
details: displacement of AlexaFluor647 tagged cyclic peptide Reagent A (20 nM) from biotinylated PCSK9 (0.5 nM); read-out: A (standard TR Fret); Ki calculated from the IC50 and the KD of AF cyclic peptide
Starred links: 1 amine or outer side, 2 acyl side, 3 side chain; linkers in the order of their positions; H or OH if unused. Positions of bridges follow the written chain, without caps; N, C: chain ends. Non-standard residues stand in square brackets, D forms with d. Residues, ends and D or L forms follow the SMILES beside them. *: point of attachment. Phe(3-CH2NH2) = O=C([C@H](Cc1cccc(CN[*:3])c1)N[*:1])[*:2]; Me3N+(CH2)2O(CH2)2O(CH2)2CO = C[N+](C)(C)CCOCCOCCC(=O)*; Trp(5-F) = N[C@@H](Cc1c[nH]c2ccc(F)cc12)C(=O)O; X1 = O=C(CCC(=O)[*:1])NCc1ccc(CCN[*:2])cc1; AEF = NCCOc1ccc(C[C@H](N)C(=O)O)cc1; Glutaryl = O=C(CCCC(=O)[*:2])[*:1]; NMeE = CN[C@@H](CCC(=O)O)C(=O)O; αMeP = C[C@@]1(C(=O)O)CCCN1; dDap = NC[C@@H](N)C(=O)O; Boc = CC(C)(C)OC(=O)*; tBu = CC(C)(C)*
readoutType: Ki

Dear reader, for each entry below, please note its Ki.
1. COc1ccc(C[C@@H]2NC(=O)[C@H]([C@@H](C)O)NC(=O)[C@@H]3CCC(=O)NCc4cccc(c4)C[C@H](NC(=O)[C@@H](CNC(=O)CCOCCOCC[N+](C)(C)C)NC(=O)[C@H](C)NC(=O)CCC(=O)NCc4ccc(cc4)CCNC(=O)[C@]4(C)CCCN4C2=O)C(=O)N[C@@H](Cc2c[nH]c4ccc(F)cc24)C(=O)N3C)cc1 [Ex-C07] (A[dDap](Me3N+(CH2)2O(CH2)2O(CH2)2CO)[Phe(3-CH2NH2)][Trp(5-F)][NMeE]TY(Me)[αMeP]; lactam 3-5; linker N-C via X1)
2. COc1ccc(C[C@@H]2NC(=O)[C@H]([C@H](C)O)NC(=O)[C@@H]3[C@@H]4CCN3C(=O)[C@H](Cc3c[nH]c5ccc(F)cc35)NC(=O)[C@H](Cc3cccc(c3)Cn3cc(nn3)CO4)NC(=O)[C@@H](C)NC(=O)[C@H](CCCC[N+](C)(C)C)NC(=O)CCC(=O)NCc3ccc(cc3)C[C@@H](C(N)=O)NC(=O)[C@]3(C)CCCN3C2=O)cc1

1. 7.17 nM
2. < 1.26 nM

Answer for every listed entry: what is its Ki? The entries follow.
1. COc1ccc(C[C@@H]2NC(=O)[C@H]([C@@H](C)O)NC(=O)[C@@H]3CCC(=O)NCc4cccc(c4)C[C@H](NC(=O)[C@@H](C)NC(=O)[C@H](C)NC(=O)[C@@H](NC(C)=O)CC(=O)NCCOc4ccc(cc4)C[C@@H](C(N)=O)NC(=O)[C@]4(C)CCCN4C2=O)C(=O)N[C@@H](Cc2c[nH]c4ccc(F)cc24)C(=O)N3C)cc1 [Ex-C01] (Ac-DA[dA][Phe(3-CH2NH2)][Trp(5-F)][NMeE]TY(Me)[αMeP][AEF]-NH2; lactam 1-10, 4-6)
2. COc1ccc(C[C@@H]2NC(=O)[C@H]([C@@H](C)O)NC(=O)C[C@@H]3[C@@H]4CCN3C(=O)[C@H](Cc3c[nH]c5ccc(F)cc35)NC(=O)[C@H](Cc3cccc(c3)CNC(=O)CO4)NC(=O)[C@@H](CNC(=O)CCOCCOCC[N+](C)(C)C)NC(=O)[C@H](C)NC(=O)CCC(=O)NCc3ccc(cc3)CCNC(=O)[C@]3(C)CCCN3C2=O)cc1
3. COc1ccc(C[C@@H]2NC(=O)[C@H]([C@@H](C)OC(C)(C)C)NC(=O)[C@@H]3CCC(=O)NCc4cccc(c4)C[C@H](NC(=O)[C@@H](CNC(=O)OC(C)(C)C)NC(=O)[C@H](C)NC(=O)CCC(=O)NCc4ccc(cc4)CCNC(=O)[C@]4(C)CCCN4C2=O)C(=O)N[C@@H](Cc2c[nH]c4ccc(F)cc24)C(=O)N3C)cc1 [Ex-C05] (A[dDap](Boc)[Phe(3-CH2NH2)][Trp(5-F)][NMeE]T(tBu)Y(Me)[αMeP]; lactam 3-5; linker N-C via X1)
4. COc1ccc(C[C@@H]2NC(=O)[C@H]([C@@H](C)O)NC(=O)[C@@H]3CCC(=O)NCc4cccc(c4)C[C@H](NC(=O)[C@@H](CN)NC(=O)[C@H](C)NC(=O)CCC(=O)NCc4ccc(cc4)CCNC(=O)[C@]4(C)CCCN4C2=O)C(=O)N[C@@H](Cc2c[nH]c4ccc(F)cc24)C(=O)N3C)cc1 [Ex-C06] (A[dDap][Phe(3-CH2NH2)][Trp(5-F)][NMeE]TY(Me)[αMeP]; lactam 3-5; linker N-C via X1)
5. COc1ccc(C[C@@H]2NC(=O)[C@H]([C@@H](C)O)NC(=O)[C@@H]3CCC(=O)NCc4cccc(c4)C[C@H](NC(=O)[C@@H](C)NC(=O)CCCC(=O)NCCOc4ccc(cc4)C[C@@H](C(N)=O)NC(=O)[C@]4(C)CCCN4C2=O)C(=O)N[C@@H](Cc2c[nH]c4ccc(F)cc24)C(=O)N3C)cc1 [Ex-C02] ([dA][Phe(3-CH2NH2)][Trp(5-F)][NMeE]TY(Me)[αMeP][AEF]-NH2; lactam 2-4; linker N-8 via Glutaryl)

27.8 nM
< 1.26 nM
< 1.26 nM
15.9 nM
151 nM
